- Tested System: T1, recombinant human GPC1 protein (R&D Systems) (human, UniProt P35052 24-530)
- T1 construct: Bought recombinant protein (R&D Systems); also called human GPC-1 antigen; Glypican-1
- T1 sequence: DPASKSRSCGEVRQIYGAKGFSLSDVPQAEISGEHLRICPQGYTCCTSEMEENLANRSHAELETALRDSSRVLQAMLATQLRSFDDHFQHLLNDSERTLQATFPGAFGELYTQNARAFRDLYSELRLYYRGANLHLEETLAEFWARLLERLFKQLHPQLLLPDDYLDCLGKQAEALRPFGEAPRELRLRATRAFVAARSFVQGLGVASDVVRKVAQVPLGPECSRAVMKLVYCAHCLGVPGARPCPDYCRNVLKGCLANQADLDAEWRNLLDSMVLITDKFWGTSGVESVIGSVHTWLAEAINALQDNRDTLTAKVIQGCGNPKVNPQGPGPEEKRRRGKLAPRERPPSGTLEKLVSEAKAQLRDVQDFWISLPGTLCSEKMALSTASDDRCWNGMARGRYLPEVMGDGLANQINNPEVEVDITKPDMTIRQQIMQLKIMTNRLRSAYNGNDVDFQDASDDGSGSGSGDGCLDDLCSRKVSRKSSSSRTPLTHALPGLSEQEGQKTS
- Test Protocol: SPR (Biacore 8K); antibody captured by anti-human IgG (Fc) on a CM5 chip, recombinant human GPC1 flowed over
- Description: The mouse anti-human-GPC1 monoclonal antibody was humanized (subclass: IgG4), and the obtained twenty clones (T1, T2, T3, T7, T8, T10, T11, T22, T26, T28, T29, T31, T32, T33, T34, T36, T43, T56, T57, T59) were prepared. […]
Measure: kon (M⁻¹ s⁻¹)
Numeric only. Scale: M⁻¹ s⁻¹

Some solved cases for reference:
humanized anti-GPC1 monoclonal antibody clone T29 (antibody, human IgG4 S228P, kappa, V domains shown, IgG) VH: QVQLVQSGAEVKKPGASVKVSCKASGYTFTGYYMHWVRQAPGQGLEWMGEINPSTGDTTYNQKFKARVTMTRDTSTSTVYMELSSLRSEDTAVYYCAREKRDDGVFAYWGQGTLVTVSS VL: DIVMTQSPSSLSASVGDRVTITCRASQDISSYLNWYQQKPGEAPKLLVYGASNLQRGVPPGFRGSGSGTDFTLTINNLQPEDFATYYCQQSSTSPITFGQGTRLEIKR: 205000
humanized anti-GPC1 monoclonal antibody clone T7 (antibody, human IgG4 S228P, kappa, V domains shown, IgG) VH: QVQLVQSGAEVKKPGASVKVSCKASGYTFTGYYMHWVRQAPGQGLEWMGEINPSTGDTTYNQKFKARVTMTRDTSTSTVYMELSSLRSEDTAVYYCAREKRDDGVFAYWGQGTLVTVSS VL: AIQLTQSPSTLSASVGDRVTITCRASQSISSWLAWYQQKPGKAPKLLISDASNLASGVPLRFSGSGFGTHFTLTIDNLQPEDIATYSCQQYNNYPFTFGLGTKLEIKR: 343000

We next turn to a different binder, shown below.
Q: Give kon for the following binder: humanized anti-GPC1 monoclonal antibody clone T32 (antibody, human IgG4 S228P, kappa, V domains shown, IgG) VH: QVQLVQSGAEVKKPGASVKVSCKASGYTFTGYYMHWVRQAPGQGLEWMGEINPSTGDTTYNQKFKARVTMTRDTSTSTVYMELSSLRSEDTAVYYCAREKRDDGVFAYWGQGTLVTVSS VL: DVVMTQSPGTLSLSPGERATLSCSASQSVSSNLAWYQQKPGQAPRLLIYGTSSRATGVPARFSGSGSGTEFTLTISSLQSEDFAAYYCQQYNSWPLTFGGGTKVEIKR
A: 208000
